Origin of measurements: paper PMC11271341

Test: Trifluridine plasma pharmacokinetics, three-phase crossover study in patients
Type: in vivo
Details: human, oral, median Tmax, range over the three phases, phases A, B and C
metric: Tmax

INPUT: Using the record for `O=c1[nH]c(=O)n([C@H]2C[C@H](O)[C@@H](CO)O2)cc1C(F)(F)F` , report its Tmax.
OUTPUT: 46.8 to 60 min
